- STUDY TARGET: human PF4 (Homo sapiens)
- Construct: PF4 is a 70 amino acid, lysine-rich 7.8 kDa platelet-specific protein; made in house; host or cells: Escherichia coli BL21DE3 pLysS (pT7-7) and/or Drosophila S2 cells
- Sequence (P02776 32-101): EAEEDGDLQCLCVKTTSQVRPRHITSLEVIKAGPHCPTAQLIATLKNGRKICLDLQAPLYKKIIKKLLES
- TEST DETAILS: Inhibition of PF4 tetramer formation (BS3 cross-linking, SDS-PAGE)
- Assay type: biochemical
- MEASUREMENT CONDITIONS: read-out: IC50 of PF4 tetramer formation inhibition
Reported pIC50 values for the following compounds.
Recall that pIC50 is obtained by taking minus log10 of the concentration measured in molar.

Reference set (4 entries):
>>> test_result("O=C(c1ccc2c(c1)C(=O)C(C(=O)CC1CCCC1=O)C2=O)c1ccc2c(c1)C(=O)C(C(=O)CC1CCCC1=O)C2=O (stereo not drawn)")
5.88
>>> test_result("CC(C)(C)CC(=O)NCC(=O)C1C(=O)c2ccc(S(=O)(=O)c3ccc4c(c3)C(=O)C(C(=O)CNC(=O)CC(C)(C)C)C4=O)cc2C1=O (stereo not drawn)")
5.59
>>> test_result("O=C1c2ccc(Oc3ccc4c(c3)C(=O)C(C(=O)[C@@H]3C[C@H]3C(=O)O)C4=O)cc2C(=O)C1C(=O)[C@@H]1C[C@H]1C(=O)O (stereo partly drawn)")
5.88
>>> test_result("O=C(c1ccc2c(c1)C(=O)C(C(=O)CN1CCCC1=O)C2=O)c1ccc2c(c1)C(=O)C(C(=O)CN1CCCC1=O)C2=O (stereo not drawn)")
5.37

Now consider the entry below.
Note to self: pIC50 of O=C(c1ccc2c(c1)C(=O)C(C(=O)NCC1CCOC1)C2=O)c1ccc2c(c1)C(=O)C(C(=O)NCC1CCOC1)C2=O (stereo not drawn) with human PF4 (Homo sapiens) was 5.40
